Cited source for all entries: PubChem BioAssay

Assay: basal RPMI8226 mitochondrial membrane potential changes, profiling panel, cell-based, JC-1 fluorescence, 24 h, 100 nL compound (AID 1169); note: test concentration not given here
Settings: RPMI8226 myeloma, JC-1 mitochondrial potential fluorescence, higher = more signal

{"columns": ["compound", "z-score"],
 "data": [
  ["O=C1OCCC=C1C(O)CCc1ccccc1 (stereo not drawn)", 0.0715],
  ["Cc1cc2c(nc1C)CCCCN2CC(C)ON=C[C@@H](C)[C@H](OCc1ccccc1)C(C)C (stereo partly drawn)", -0.262],
  ["C[C@@H]1CC[C@H]2C(=O)O[C@@H](COc3ccc(C(C)(C)C)cc3)CN2[C@@H]1c1ccc(Br)cc1", -0.509],
  ["O=C1CCCC=C1C(CCc1ccccc1)OC(=O)c1ccc(Br)cc1 (stereo not drawn)", -0.619],
  ["C[C@H]1CC[C@H]2C(=O)OC(CO)CN2[C@@H]1c1ccc(Br)cc1 (stereo partly drawn)", 0.859],
  ["CCN1C(=O)[C@H]2[C@H]3[C@H](O)[C@H](O)CC(=O)[C@@H]3CC[C@H]2C1=O", -0.0467],
  ["CCCCC#C[C@@H]1C=C[C@H](OC(C)=O)[C@@H](COC(C)=O)O1", -0.746],
  ["CC(C)=NOC[C@@H](C)[C@H](OCc1ccccc1)C(C)C", -0.279],
  ["COc1ccc(COC(=O)NN=C2C[C@@H](O)[C@@H](O)[C@@H]3[C@@H]4C(=O)N(Cc5ccccc5)C(=O)[C@@H]4CC[C@H]23)cc1", 0.365],
  ["CCOC(=O)NN=C1C[C@@H](O)[C@@H](O)[C@@H]2[C@@H]3C(=O)N(Cc4ccccc4)C(=O)[C@@H]3CC[C@H]12", 0.334],
  ["CCCNC(=O)OC[C@H]1O[C@H](CCON=C(C)C)C=C[C@@H]1Oc1ccc(OC)cc1", 0.255],
  ["CC(=O)OC[C@H]1O[C@@H](ON=C(C)CCN2CCCc3nc(C)c(C)cc32)[C@H](OC(C)=O)[C@@H](OC(C)=O)[C@@H]1OC(C)=O", -0.572],
  ["CCOC(=O)[C@H](CC(C)C)NC(=O)CCC1CC(OC(=O)NCc2cccc3ccccc23)CC2(CCCC(COC(=O)NCC3CCCCC3)O2)O1 (stereo partly drawn)", 0.273],
  ["CO[C@H]1COC(=O)CC=C[C@@H](C)[C@H](OC)COC(=O)[C@@H]2CCCN2C(=O)CC=C[C@@H]1C", -0.83],
  ["COCCNC(=O)OCC1CCCC2(CC(OC(=O)NCc3ccc4c(c3)OCO4)CC(CCC(=O)N[C@@H](C)C(=O)OC)O2)O1 (stereo partly drawn)", 0.934],
  ["CC(CCN1CCCc2nc(C)c(C)cc21)=NO[C@@H](C)c1cc(-c2c(C)cc(C)cc2C)no1", -0.0137],
  ["O=C1C=C[C@@H](O)[C@@H]2[C@@H]3C(=O)N(c4ccc(F)cc4F)C(=O)[C@@H]3CC[C@@H]12", -0.322],
  ["CO[C@H]1COC(=O)[C@@H](C)COC(=O)[C@H](COCc2ccccc2)NC(=O)CC=C[C@H]1C", 0.529],
  ["C[C@H]1COC(=O)[C@@H]2CCCN2C(=O)[C@@H](C)COC(=O)[C@H](Cc2ccccc2)NC1=O", -0.287],
  ["CC(C)=CCCC(C)=CCON=C1C[C@@H](O)[C@@H](O)[C@@H]2[C@@H]3C(=O)N(C(C)(C)C)C(=O)[C@@H]3CC[C@@H]12", -0.231],
  ["CCOC(=O)[C@H](CC(C)C)NC(=O)CCC1CC(OC(=O)NCc2ccc3c(c2)OCO3)CC2(CCCC(COC(=O)NCC(c3ccccc3)c3ccccc3)O2)O1 (stereo partly drawn)", -0.828],
  ["COC(=O)NCC=Cc1nc(CCCO)co1", -0.0369],
  ["COC(=O)[C@@H]1CC[C@H](C)[C@@H](c2ccc(C)cc2)N1C(=O)c1ccc(C=NOCC[C@@H]2C=C[C@H](OC(C)=O)[C@@H](COC(C)=O)O2)cc1", 0.682]
]}
